Target under test: ATP-dependent translocase ABCB1 (Homo sapiens)
Sequence (P08183 whole entry): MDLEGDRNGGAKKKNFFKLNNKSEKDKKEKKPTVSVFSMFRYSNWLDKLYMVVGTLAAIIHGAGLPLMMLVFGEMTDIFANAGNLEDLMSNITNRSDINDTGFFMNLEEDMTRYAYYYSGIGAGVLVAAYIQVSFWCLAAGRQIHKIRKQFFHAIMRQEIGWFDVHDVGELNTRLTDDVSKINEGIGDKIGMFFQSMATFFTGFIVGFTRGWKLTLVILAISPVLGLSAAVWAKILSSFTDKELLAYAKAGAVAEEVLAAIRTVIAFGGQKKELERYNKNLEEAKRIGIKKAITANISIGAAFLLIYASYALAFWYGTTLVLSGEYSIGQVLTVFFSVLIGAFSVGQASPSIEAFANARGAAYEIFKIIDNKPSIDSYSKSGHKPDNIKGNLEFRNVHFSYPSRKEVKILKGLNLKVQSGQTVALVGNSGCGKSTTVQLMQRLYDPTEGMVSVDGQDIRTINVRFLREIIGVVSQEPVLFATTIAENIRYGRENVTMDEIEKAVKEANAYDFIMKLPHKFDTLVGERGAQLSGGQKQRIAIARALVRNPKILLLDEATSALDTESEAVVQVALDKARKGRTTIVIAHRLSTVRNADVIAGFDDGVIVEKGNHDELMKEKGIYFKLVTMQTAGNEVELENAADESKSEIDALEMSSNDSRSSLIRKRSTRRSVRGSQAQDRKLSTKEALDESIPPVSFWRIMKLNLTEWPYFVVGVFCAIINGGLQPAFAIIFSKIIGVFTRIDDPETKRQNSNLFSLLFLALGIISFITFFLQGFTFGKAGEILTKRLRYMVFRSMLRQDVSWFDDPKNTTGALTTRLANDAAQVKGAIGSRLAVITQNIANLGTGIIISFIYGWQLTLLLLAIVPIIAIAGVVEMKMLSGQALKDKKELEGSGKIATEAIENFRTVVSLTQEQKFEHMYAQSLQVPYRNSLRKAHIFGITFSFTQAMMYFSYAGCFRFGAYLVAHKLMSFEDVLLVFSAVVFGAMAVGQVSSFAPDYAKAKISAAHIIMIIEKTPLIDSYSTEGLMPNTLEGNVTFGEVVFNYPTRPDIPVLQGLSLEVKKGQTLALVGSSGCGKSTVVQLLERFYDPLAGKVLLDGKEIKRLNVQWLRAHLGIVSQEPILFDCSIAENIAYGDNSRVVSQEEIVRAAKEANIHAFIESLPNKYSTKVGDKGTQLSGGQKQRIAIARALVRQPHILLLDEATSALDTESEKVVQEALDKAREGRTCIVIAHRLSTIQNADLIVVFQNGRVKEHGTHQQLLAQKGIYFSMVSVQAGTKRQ
Assay notes: Inhibition of P-gp in human MCF7/ADR cells assessed as reversal of multidrug resistance by measuring relative enhancement intensity for adriamycin-induced cytotoxicity at 10 uM after 48 hrs by SRB colorimetric assay
Assay type: cell-based
Set-up: scale not given: the % may be the effect or the level left
Condition set: nci/adr-res
Measurement name: Activity (%)
Give bare numbers, in %.

Okay, here is my list. What is Activity for each of these?
1. C=C1CC[C@H]2[C@@H]([C@@H]3O[C@]4(C[C@H](C)[C@H](OC(=O)Cc5ccccc5)[C@@H]4[C@H]1OC(=O)Cc1ccccc1)C(=O)[C@H]3C)C2(C)C
2. C=C1CC[C@H]2[C@@H](/C=C(\C)C(=O)[C@@]3(O)C[C@H](C)[C@H](O)[C@@H]3[C@H]1OC(=O)/C=C/c1ccccc1)C2(C)C
3. C=C1CCC(=C(C)C)[C@H]2C[C@@H](C)C(=O)[C@@]3(C[C@H](C)[C@H](OC(C)=O)[C@@H]3[C@H]1OC(C)=O)O2
4. C=C1CC[C@H]2[C@@H]([C@@H]3O[C@]4(C[C@H](C)[C@H](OC(=O)CCCCC)[C@@H]4[C@H]1OC(=O)CCCCC)C(=O)[C@H]3C)C2(C)C
5. C=C1CC[C@H]2[C@@H]([C@@H]3O[C@]4(C[C@H](C)[C@H](OC(=O)/C=C/c5ccccc5)[C@@H]4[C@H]1OC(=O)/C=C/c1ccccc1)C(=O)[C@H]3C)C2(C)C

Result:
1: 11.6; 2: 9.1; 3: 2.4; 4: 6.8; 5: 2.1

* * *

Target under test: ATP-dependent translocase ABCB1 (Homo sapiens)
Assay notes: Inhibition of P-gp in human MCF7/ADR cells assessed as forward scatter count of cells at 20 uM pre-treated for 1 hr at 37 degC followed by incubation with Rh123 for 1 hr by flow cytometry (reference value: 142.5 No unit)
Type: cell-based
Condition set: nci/adr-res
Measurement name: Activity
Numbers only.

Worked set:
C=C1CC[C@H]2[C@@H](/C=C(\C)C(=O)[C@@]3(O)C[C@H](C)[C@H](O)[C@@H]3[C@H]1OC(=O)Cc1cccc3ccccc13)C2(C)C	138.7
C=C1CC[C@H]2[C@@H](/C=C(\C)C(=O)[C@@]3(O)C[C@H](C)[C@H](OC(=O)c4ccccc4)[C@@H]3[C@H]1OC(=O)c1ccccc1)C2(C)C	148.1
COc1ccc(CCN(C)CCCC(C#N)(c2ccc(OC)c(OC)c2)C(C)C)cc1OC (centres undefined)	137.4

Q: Given the compound C=C1CC[C@H]2[C@@H](/C=C(\C)C(=O)[C@@]3(O)C[C@H](C)[C@H](OC(=O)CC)[C@@H]3[C@H]1OC(=O)Cc1cccc3ccccc13)C2(C)C , what is its reported Activity?
Result: 131.4
